measuredTarget: SHP2 N‐SH2 domain (Homo sapiens, UniProt Q06124)
Construct: SHP2 N-SH2 domain (1–105), C-SH2 domain (106–220), PTP domain (224–541) and; His6 (pETM22 vector) (N, cleaved yes); made in house; host or cells: E. coli BL21(DE3)
Sequence (Q06124 1-105): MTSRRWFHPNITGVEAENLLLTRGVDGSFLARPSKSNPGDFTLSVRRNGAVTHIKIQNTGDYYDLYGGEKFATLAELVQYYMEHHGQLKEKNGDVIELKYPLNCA
experimentDescription: Fluorescence polarization (FP) binding assay, SHP2 N-SH2 domain
conditionSummary: 100 nM FAM-labelled peptide, increasing N-SH2 protein, 50 mM HEPES pH 7.5, 150 mM NaCl, 1 mM EDTA, 0.05% Tween 20, FP at 10 min, three independent experiments in technical triplicates, read-out: K D ± SEM, N‐SH2 (FP)
Method: buffer and stored in 5 mL binding buffer at 4°C. […] Protein purification was monitored by SDS-PAGE using NuPAGE 4-12% Bis-Tris Protein Gels (Invitrogen) run in MOPS buffer (50 mM MOPS, 50 mM Tris-HCl pH 7.7, 1 mM EDTA, 0.1% SDS) followed by Coomassie staining using Coomassie Brilliant Blue (Roth). […] 4. Fluorescence polarization Fluorescence polarization (FP) was used to measure the binding of FAM-labelled peptides to the SHP2 C-SH2, SHP2 N-SH2, SHP2 PTP, CSK SH2 or Src SH2 domains. […]
Non-standard residues stand in square brackets, D forms with d. Residues, ends and D or L forms follow the SMILES beside them. *: point of attachment. 5FAM = O=C1OC2(c3ccc(O)cc3Oc3cc(O)ccc32)c2ccc(C(=O)*)cc21; F2Pmp = N[C@@H](Cc1ccc(C(F)(F)P(=O)(O)O)cc1)C(=O)O; pY = N[C@@H](Cc1ccc(OP(=O)(O)O)cc1)C(=O)O
assayMetric: pKd
Note on pKd: it is the negative log10 of concentration, concentration in mol/L.

Example cases with answers are listed next.
{"compound": "CC[C@H](C)[C@H](NC(=O)[C@@H](NC(=O)[C@H](C)NC(=O)[C@H](Cc1ccc(OP(=O)(O)O)cc1)NC(=O)[C@H](CCC(=O)O)NC(=O)[C@@H](NC(=O)[C@H](CCC(N)=O)NC(=O)c1ccc2c(c1)C(=O)OC21c2ccc(O)cc2Oc2cc(O)ccc21)[C@@H](C)O)[C@@H](C)O)C(=O)N[C@@H](CCCCN)C(=O)N[C@@H](Cc1ccccc1)C(=O)N1CCC[C@H]1C(N)=O [compound 16] (5FAM-QTE[pY]ATIKFP-NH2)", "observedResult": 5.96}
{"compound": "CC[C@H](C)[C@H](NC(=O)[C@@H](NC(=O)[C@H](C)NC(=O)[C@H](Cc1ccc(C(F)(F)P(=O)(O)O)cc1)NC(=O)[C@H](CCC(=O)O)NC(=O)[C@@H](NC(=O)[C@H](CCC(N)=O)NC(=O)[C@H](CCC(=O)O)NC(=O)c1ccc2c(c1)C(=O)OC21c2ccc(O)cc2Oc2cc(O)ccc21)[C@@H](C)O)[C@@H](C)O)C(=O)N[C@H](C(=O)N[C@@H](Cc1ccccc1)C(=O)N1CCC[C@H]1C(N)=O)C(C)C [FAM‐ITSM(F2Pmp)] (5FAM-EQTE[F2Pmp]ATIVFP-NH2)", "observedResult": 5.86}

Query: What does the record list as pKd for CC[C@H](C)[C@H](NC(=O)[C@@H](NC(=O)[C@H](C)NC(=O)[C@H](Cc1ccc(OP(=O)(O)O)cc1)NC(=O)[C@H](CCC(=O)O)NC(=O)[C@@H](NC(=O)[C@H](CCC(N)=O)NC(=O)c1ccc2c(c1)C(=O)OC21c2ccc(O)cc2Oc2cc(O)ccc21)[C@@H](C)O)C(C)C)C(=O)N[C@@H](CCCCN)C(=O)N[C@@H](Cc1ccccc1)C(=O)N1CCC[C@H]1C(N)=O [compound 14] (5FAM-QTE[pY]AVIKFP-NH2) ?
Result: 6.08
